- Test Target: T4-Acb2 (Enterobacteria phage T4, UniProt P13314)
- Sequence (P13314 whole entry): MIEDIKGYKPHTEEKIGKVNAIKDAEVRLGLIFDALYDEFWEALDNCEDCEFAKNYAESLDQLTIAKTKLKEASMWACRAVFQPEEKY
Measured Endpoint: Kd

// Kd lookup, compound = "Nc1nc2c(ncn2[C@@H]2O[C@@H]3COP(=O)(O)O[C@H]4[C@@H](O)[C@H](n5cnc6c(N)ncnc65)O[C@@H]4COP(=O)(O)O[C@H]3[C@H]2O)c(=O)[nH]1" , result: ~84.4 nM

====

- Test Target: Acb2 protein (PaMx33-Acb2) (Pseudomonas phage PaMx33, UniProt A0A1C8HPQ3)
- Sequence (A0A1C8HPQ3 whole entry): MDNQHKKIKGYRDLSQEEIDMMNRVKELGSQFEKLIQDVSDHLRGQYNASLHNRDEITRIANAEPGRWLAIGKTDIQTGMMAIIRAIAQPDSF
- Protocol: Native gel
- Type: binding, P. aeruginosa phage PaMx33
- Condition Info: WT PaMx33-Acb2 14.3 μM
Measured Endpoint: shift of the Acb2 protein / binding (native gel)

Known shift of the Acb2 protein / binding (native gel) results, listed for orientation:
O=c1ccn([C@@H]2O[C@@H]3COP(=O)(O)O[C@H]3[C@H]2O)c(=O)[nH]1: does not bind
Nc1nc2c(ncn2[C@@H]2O[C@@H]3COP(=O)(O)O[C@H]4[C@@H](O)[C@H](n5cnc6c(N)ncnc65)O[C@@H]4COP(=O)(O)O[C@H]4[C@@H](O)[C@H](n5cnc6c(N)ncnc65)O[C@@H]4COP(=O)(O)O[C@H]3[C@H]2O)c(=O)[nH]1: significant shift
Nc1nc2c(ncn2[C@@H]2O[C@@H]3COP(=O)(O)O[C@@H]4[C@H](O)[C@@H](COP(=O)(O)O[C@H]3[C@H]2O)O[C@H]4n2cnc3c(N)ncnc32)c(=O)[nH]1: significant shift
Nc1ccn([C@@H]2O[C@@H]3COP(=O)(O)O[C@H]3[C@H]2O)c(=O)n1: does not bind

The recorded shift of the Acb2 protein / binding (native gel) with Acb2 protein (PaMx33-Acb2) (Pseudomonas phage PaMx33, UniProt A0A1C8HPQ3) for "Nc1ncnc2c1ncn2[C@@H]1O[C@@H]2COP(=O)(O)O[C@H]3[C@@H](O)[C@H](n4cnc5c(N)ncnc54)O[C@@H]3COP(=O)(O)O[C@H]3[C@@H](O)[C@H](n4cnc5c(N)ncnc54)O[C@@H]3COP(=O)(O)O[C@H]2[C@H]1O" was significant shift

====

- Test Target: JBD67-Acb2 (Pseudomonas phage JBD67, UniProt P0DX89)
- Sequence (P0DX89 whole entry): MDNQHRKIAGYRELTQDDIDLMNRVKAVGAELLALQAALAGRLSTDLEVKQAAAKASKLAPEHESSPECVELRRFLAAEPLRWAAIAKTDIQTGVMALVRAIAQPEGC
- Protocol: ITC binding to JBD67-Acb2
Please respond with reported Kd for every item in the list.

Value sought for every listed compound: Kd.
1. Nc1ncnc2c1ncn2[C@@H]1O[C@@H]2COP(=O)(O)O[C@H]3[C@@H](O)[C@H](n4cnc5c(N)ncnc54)O[C@@H]3COP(=O)(O)O[C@H]3[C@@H](O)[C@H](n4cnc5c(N)ncnc54)O[C@@H]3COP(=O)(O)O[C@H]2[C@H]1O [cA3, 3’3’3’-cyclic AMP-AMP-AMP]
2. Nc1nc2c(ncn2[C@@H]2O[C@@H]3COP(=O)(O)O[C@H]4[C@@H](O)[C@H](n5cnc6c(N)ncnc65)O[C@@H]4COP(=O)(O)O[C@H]3[C@H]2O)c(=O)[nH]1 [3’,3’-cGAMP]

Response:
~3.5 nM
~99 nM
